All values here come from paper PMC2819846.

Tested on: Salmonella TA104
Test: Salmonella plate-incorporation mutagenicity assay, strain TA104, with S9 mix
Type: cell-based
Conditions: TA104 +S9, Test 3, 0.5 µg/plate; zero-dose 402/395/336
Below is a list of entries, each paired with its recorded Rev/plate value.
MEASURED_ENDPOINT: Rev/plate

molecule="c1ccc2c(c1)ccc1ccc3ccccc3c12 [B[c]P, Benzo[c]phenanthrene]" measured_on="Salmonella TA104" result=523/486
molecule="c1ccc2c(c1)ccc1ccc3sccc3c12 [P[3,4-b]T, Phenanthro[3,4,-b]thiophene]" measured_on="Salmonella TA104" result=507/473
molecule="O[C@@H]1C=Cc2c(ccc3ccc4ccsc4c23)[C@H]1O (racemic) [P[4,3-b]T 8,9-diol]" measured_on="Salmonella TA104" result=824/707
molecule="O[C@@H]1C=Cc2c(ccc3ccc4ccccc4c23)[C@H]1O (racemic) [B[c]P 3,4-diol]" measured_on="Salmonella TA104" result=663/615
molecule="O[C@@H]1C=Cc2c(ccc3ccc4sccc4c23)[C@H]1O (racemic) [P[3,4-b]T 8,9-diol]" measured_on="Salmonella TA104" result=566/525
molecule="Nc1ccc2cc3ccccc3cc2c1 [2-aminoanthracene, reference compound]" measured_on="Salmonella TA104" result=822/811
